Assay: Neurotoxicity in ip dosed mouse assessed as time spent on rotarod by rotarod test
Assay type: toxicity, organism-based
Details: in vivo
For each record, check the reported TD50: if it is below 80 mg/kg write met, else write not met.

Illustrative cases are given below, each with its answer.
molecule_smiles=Brc1ccccc1COc1ccc2c(c1)-c1nncn1CCO2 category_label="not met"
molecule_smiles=CCCCCCOc1ccc2c(c1)-c1nncn1CCO2 category_label=met
molecule_smiles=Fc1cccc(COc2ccc3c(c2)-c2nncn2CCO3)c1 category_label=met
molecule_smiles=Clc1ccccc1COc1ccc2c(c1)-c1nncn1CCO2 category_label="not met"
molecule_smiles=Clc1ccc(COc2ccc3c(c2)-c2nncn2CCO3)cc1 category_label="not met"
molecule_smiles=Clc1cccc(COc2ccc3c(c2)-c2nncn2CCO3)c1 category_label="not met"
molecule_smiles=CCCCCCCCOc1ccc2c(c1)-c1nncn1CCO2 category_label=met

Please look at the following compound next.
Query: Hello, I'm reviewing records and need to know if TD50 of "Fc1ccc(COc2ccc3c(c2)-c2nncn2CCO3)cc1" is below 80 mg/kg. Could you check?
Result: met

---

Organism: Mus musculus
Assay: Protective index, ratio of TD50 for mouse by rotarod test to ED50 for mouse by MES test
Type: functional
Property Label: PI
Form field (numeric): enter value without unit.

molecule_smiles=CCCCCCCOc1ccc2c(c1)-c1nncn1CCO2 assay_result=9.5
molecule_smiles=Brc1cccc(COc2ccc3c(c2)-c2nncn2CCO3)c1 assay_result=3.6
molecule_smiles=Fc1ccc(COc2ccc3c(c2)-c2nncn2CCO3)cc1 assay_result=2.3

Query: Requested read-out: PI. Entry: "CCCCCOc1ccc2c(c1)-c1nncn1CCO2"
Result: 3.8

---

# PI values compiled below
Species: Mus musculus
Assay: Protective index, ratio of TD50 for mouse by rotarod test to ED50 for mouse by MES test
Type: functional

compound=CCCCCCOc1ccc2c(c1)-c1nncn1CCO2 assay_result=6
compound="NC(=O)N1c2ccccc2C=Cc2ccccc21 [CARBAMAZEPINE]" assay_result=6.4
compound=c1ccc(COc2ccc3c(c2)-c2nncn2CCO3)cc1 assay_result=4.6

Query: Requested read-out: PI. Entry: "CCCCOc1ccc2c(c1)-c1nncn1CCO2"
Result: 4.2

Query: Consider next the compound "CCCCCCCCOc1ccc2c(c1)-c1nncn1CCO2" in the same way.
Result: 5.8

Query: Consider next the compound "Clc1ccc(COc2ccc3c(c2)-c2nncn2CCO3)cc1" in the same way.
Result: 1.8

---

Assay: Neurotoxicity in ip dosed mouse assessed as time spent on rotarod by rotarod test
Format: toxicity, organism-based
Details: in vivo
For each record, check the reported TD50: if it is below 60 mg/kg write 1, else write 0.

Illustrative cases are given below, each with its answer.
molecule_smiles=c1ccc(COc2ccc3c(c2)-c2nncn2CCO3)cc1 category_label=0
molecule_smiles=Brc1cccc(COc2ccc3c(c2)-c2nncn2CCO3)c1 category_label=0
molecule_smiles=Fc1ccccc1COc1ccc2c(c1)-c1nncn1CCO2 category_label=0
molecule_smiles=CCCCOc1ccc2c(c1)-c1nncn1CCO2 category_label=1
molecule_smiles=CCCCCCCOc1ccc2c(c1)-c1nncn1CCO2 category_label=0

Please look at the following compound next.
Query: Hello, I'm reviewing records and need to know if TD50 of "CCCOc1ccc2c(c1)-c1nncn1CCO2" is below 60 mg/kg. Could you check?
Result: 1

---

Tested on: Mus musculus
Assay: Anticonvulsant activity in mouse assessed as protection against maximal electroshock-induced seizures at 30 mg/kg, ip measured after 4 hrs
Format: functional, organism-based
Set-up: dose 30 mg/kg
The source made the active and inactive calls. No cut-off for these calls is given here.
Property Label: Activity

Record excerpt, results attached:
molecule_smiles=CCCCOc1ccc2c(c1)-c1nncn1CCO2 assay_result=inactive
molecule_smiles=CCOc1ccc2c(c1)-c1nncn1CCO2 assay_result=inactive
molecule_smiles=c1ccc(COc2ccc3c(c2)-c2nncn2CCO3)cc1 assay_result=inactive
molecule_smiles=Brc1ccc(COc2ccc3c(c2)-c2nncn2CCO3)cc1 assay_result=inactive
molecule_smiles=Fc1ccc(COc2ccc3c(c2)-c2nncn2CCO3)cc1 assay_result=inactive
molecule_smiles=Fc1cccc(COc2ccc3c(c2)-c2nncn2CCO3)c1 assay_result=inactive
molecule_smiles=Cc1ccc(COc2ccc3c(c2)-c2nncn2CCO3)cc1 assay_result=inactive
molecule_smiles=CCCCCCCCOc1ccc2c(c1)-c1nncn1CCO2 assay_result=inactive
molecule_smiles=Fc1ccccc1COc1ccc2c(c1)-c1nncn1CCO2 assay_result=inactive
molecule_smiles=COc1ccc(COc2ccc3c(c2)-c2nncn2CCO3)cc1 assay_result=inactive

Query: Requested read-out: Activity. Entry: "CCCOc1ccc2c(c1)-c1nncn1CCO2"
Result: inactive

Query: Consider next the compound "Brc1cccc(COc2ccc3c(c2)-c2nncn2CCO3)c1" in the same way.
Result: inactive

---

Organism: Mus musculus
Assay: Protective index, ratio of TD50 for mouse by rotarod test to ED50 for mouse by MES test
Assay type: functional
# PI >= 3 gives criterion met, anything below gives criterion not met

Illustrative cases are given below, each with its answer.
molecule_smiles=CCCOc1ccc2c(c1)-c1nncn1CCO2 category_label="criterion not met"
molecule_smiles=Fc1cccc(COc2ccc3c(c2)-c2nncn2CCO3)c1 category_label="criterion met"
molecule_smiles=Clc1ccccc1COc1ccc2c(c1)-c1nncn1CCO2 category_label="criterion not met"

Query: Reported PI at or above 3? "Brc1ccccc1COc1ccc2c(c1)-c1nncn1CCO2"
Result: criterion not met

Query: Consider next the compound "Clc1cccc(COc2ccc3c(c2)-c2nncn2CCO3)c1" in the same way.
Result: criterion not met

Query: Consider next the compound "Fc1ccccc1COc1ccc2c(c1)-c1nncn1CCO2" in the same way.
Result: criterion met
